Test system: STEME (common chickweed)
Assay: Pre-emergence herbicidal activity, cool season
Type: in vivo, Stellaria media
Settings: lowest tested rate with 80% or greater inhibition; rates 300, 100, 30, 10 g/ha; about 14 days
Description: Tables 5 to 8 summarize results of tests conducted as described below to determine the pre-emergence herbicidal activity, in the form of a GR80 value, of illustrative compounds of this invention. […] Compounds of the invention were typically applied at rates of 300, 100, 30, and 10 g/ha. […] Approximately 14 days after planting and treating, the plants were observed and herbicidal efficacy recorded as percent inhibition by comparison with untreated plants. […]
VALUE_KIND: Pre-emergence activity GR80, STEME (g/ha)

| COMPOUND | UNIT | EXPERIMENTAL_RESULT |
| --- | --- | --- |
| O=C(N1CCCC1)n1cnc(S(=O)(=O)C(F)(F)C(F)F)n1 [Example 71] | g/ha | 300 |
| C=CCC(F)(F)S(=O)(=O)c1ncn(C(=O)N(CC)CC)n1 | g/ha | 100 |
| CON(C)C(=O)n1cnc(S(=O)(=O)C(F)(F)C(F)F)n1 | g/ha | 300 |

====

Listing: Pre-emergence activity (GR80) PANMI of selected molecules
tested on: PANMI (wild proso millet); test: Pre-emergence herbicidal activity, warm season; assay type: in vivo, Panicum miliaceum; conditions: GR80 = lowest tested rate (300, 100, 30, 10 g/ha) with 80% or greater inhibition; approx. 14 days after treating; 30/21° C.
VALUE_KIND: Pre-emergence activity (GR80) PANMI

| MOLECULE | EXPERIMENTAL_RESULT |
| --- | --- |
| CN(C)C(=O)n1cnc(S(=O)(=O)C(F)(F)C(F)(F)Br)n1 | 100 g/ha |
| CN(Cc1ccccc1)C(=O)n1cnc(S(=O)(=O)C(F)(F)C(F)(F)Br)n1 | 300 g/ha |
| COCCN(C)C(=O)n1cnc(S(=O)(=O)C(F)(F)C(F)F)n1 | 100 g/ha |
| O=C(N1CCCC1)n1cnc(S(=O)(=O)C(F)(F)Br)n1 | 100 g/ha |
| CN(Cc1ccccc1)C(=O)n1cnc(S(=O)(=O)C(F)F)n1 | 300 g/ha |
| C=CCN(C)C(=O)n1cnc(S(=O)(=O)C(F)F)n1 | 100 g/ha |
| COCCN(C)C(=O)n1cnc(S(=O)(=O)C(F)(F)Br)n1 | 300 g/ha |
| O=C(N1CCCC1)n1cnc(S(=O)(=O)C(F)(F)C(F)F)n1 [Example 71] | 300 g/ha |
| C=C(CC(F)(F)S(=O)(=O)c1ncn(C(=O)N(CC)CC)n1)C[Si](C)(C)C | 100 g/ha |

====

Listed next: entries and their corresponding inhibition at 300 g/ha.
system: AGRRE (quackgrass (seedling)); assay: Pre-plant incorporated (PPI) herbicidal activity, cool season; type: in vivo, Elymus repens; settings: Elymus repens; weed, PPI application, 300 g/ha; read-out: Percent inhibition AGRRE

| SMI | inhibition at 300 g/ha |
| --- | --- |
| CCN(CC)C(=O)n1cnc(S(=O)(=O)C(F)(F)Br)n1 | 60% |
| C=C(Br)CC(F)(F)S(=O)(=O)c1ncn(C(=O)N(CC)CC)n1 | 20% |
| C=C(C)CC(F)(F)S(=O)(=O)c1ncn(C(=O)N(CC)CC)n1 | 20% |
| CCSC(F)(F)S(=O)(=O)c1ncn(C(=O)N(CC)CC)n1 | 70% |
| C=CCC(F)(F)S(=O)(=O)c1ncn(C(=O)N(CC)CC)n1 | 60% |
